# Study System: Beta-1 adrenergic receptor (Homo sapiens, UniProt P08588)
# Sequence (P08588 whole entry): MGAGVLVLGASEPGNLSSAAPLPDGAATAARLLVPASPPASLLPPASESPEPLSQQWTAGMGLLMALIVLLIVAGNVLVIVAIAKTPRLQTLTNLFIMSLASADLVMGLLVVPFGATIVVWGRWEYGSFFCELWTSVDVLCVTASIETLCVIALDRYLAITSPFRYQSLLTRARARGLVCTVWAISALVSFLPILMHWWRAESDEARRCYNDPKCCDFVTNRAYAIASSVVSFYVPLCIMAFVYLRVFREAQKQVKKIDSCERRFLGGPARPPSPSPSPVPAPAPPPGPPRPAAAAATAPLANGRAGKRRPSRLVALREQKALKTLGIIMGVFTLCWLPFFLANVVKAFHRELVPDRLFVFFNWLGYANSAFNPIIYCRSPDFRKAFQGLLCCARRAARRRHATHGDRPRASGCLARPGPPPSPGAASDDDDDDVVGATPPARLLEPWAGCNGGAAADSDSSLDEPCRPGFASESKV
# Assay Notes: In vitro agonist activity measured by increase in cAMP levels in chinese hamster ovary cells (CHO) cells expressing human Beta-1 adrenergic receptor
# Type: functional, cell-based
Measured Endpoint: EC50 (µM)

O=C(NCc1cc(F)ccc1F)Nc1ccc(S(=O)(=O)N2CCC(CNC[C@H](O)COc3ccc(O)cc3)CC2)cc1    1.01
CCCCCCNC(=O)Nc1ccc(S(=O)(=O)N2CCC(CNC[C@H](O)COc3ccc(O)cc3)CC2)cc1    10.9
O=C(Nc1ccccc1)Nc1ccc(S(=O)(=O)N2CCC(CNC[C@H](O)COc3ccc(O)cc3)CC2)cc1    0.489
